Observed IC50 values for Proto-oncogene tyrosine-protein kinase Src (Homo sapiens, UniProt P12931) are listed in what follows.
measurement_kind: IC50 (nM)

# example entries with known answers
mol: COc1ccc(Nc2nc(N3CCNCC3)nc3nc[nH]c23)cc1
recorded_value: 2430
--
mol: O=[N+]([O-])c1ccc(Nc2nc(N3CCNCC3)nc3[nH]cnc23)cc1
recorded_value: 1400
--
mol: O=[N+]([O-])c1cccc(Nc2nc(N3CCOCC3)nc3[nH]cnc23)c1
recorded_value: 130
--
mol: NS(=O)(=O)c1ccc(Nc2nc(N3CCNCC3)nc3[nH]cnc23)cc1
recorded_value: 1820
--
mol: COc1cccc(Nc2nc(N3CCOCC3)nc3[nH]cnc23)c1
recorded_value: 930

[P] Brc1ccc(Nc2nc(N3CCOCC3)nc3[nH]cnc23)cc1
[Q] NS(=O)(=O)c1cccc(Nc2nc(N3CCNCC3)nc3[nH]cnc23)c1
Query string: From the recorded data, which exceeds the other in IC50: P or Q ? Use the label to indicate which entry you chose.
Result string: P
(P: 450 nM, Q: 100 nM)
